Data export: IC50 values recorded with GST-tagged Tnks-1 (1023-1327 aa) (Homo sapiens).
Sequence (O95271 1023-1327): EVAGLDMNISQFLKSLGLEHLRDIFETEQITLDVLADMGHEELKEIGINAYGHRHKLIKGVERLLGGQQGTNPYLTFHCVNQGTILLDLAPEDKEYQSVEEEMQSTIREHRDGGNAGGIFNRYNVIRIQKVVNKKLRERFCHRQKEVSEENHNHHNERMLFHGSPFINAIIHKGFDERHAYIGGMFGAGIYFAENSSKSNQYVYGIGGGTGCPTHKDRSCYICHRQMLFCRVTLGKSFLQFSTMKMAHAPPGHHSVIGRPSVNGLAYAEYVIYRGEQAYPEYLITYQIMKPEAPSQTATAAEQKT
measured.quantity: IC50

- O=c1[nH]c(-c2ccc(C(F)(F)F)cc2)cn2cncc12: < 300 nM
- Cn1cc(-c2ccc(-c3cn4cncc4c(=O)[nH]3)cc2)cn1: < 300 nM
- CC(C)(C)c1ccc(-c2cn3cncc3c(=O)[nH]2)cc1: < 300 nM

* * *

- system.tested: GST-tagged Tankyrase-1 (1023-1327 aa) (Homo sapiens, UniProt O95271)
- Sequence (O95271 1023-1327): as above
pIC50: −log10 of the molar value.
measured.quantity: pIC50

* CC(C)(C)c1ccc(-c2cn3cncc3c(=O)[nH]2)cc1 | > 6.52
* Cc1ncc2c(=O)[nH]c(-c3ccc(C(C)(C)C)cc3)cn12 | 5.52 to 6.52
* CC(C)(O)c1ccc(-c2cn3cncc3c(=O)[nH]2)cc1 | 5.52 to 6.52
* Cn1cc(-c2ccc(-c3cn4cncc4c(=O)[nH]3)cc2)cn1 | 5.52 to 6.52
* O=c1[nH]c(-c2ccc(CO)cc2)cn2cncc12 | 5.52 to 6.52

Measured values drawn from patent US9718826B2 for this set.
